Target: PRK2 (Homo sapiens (Human))
Sequence (Q16513 whole entry): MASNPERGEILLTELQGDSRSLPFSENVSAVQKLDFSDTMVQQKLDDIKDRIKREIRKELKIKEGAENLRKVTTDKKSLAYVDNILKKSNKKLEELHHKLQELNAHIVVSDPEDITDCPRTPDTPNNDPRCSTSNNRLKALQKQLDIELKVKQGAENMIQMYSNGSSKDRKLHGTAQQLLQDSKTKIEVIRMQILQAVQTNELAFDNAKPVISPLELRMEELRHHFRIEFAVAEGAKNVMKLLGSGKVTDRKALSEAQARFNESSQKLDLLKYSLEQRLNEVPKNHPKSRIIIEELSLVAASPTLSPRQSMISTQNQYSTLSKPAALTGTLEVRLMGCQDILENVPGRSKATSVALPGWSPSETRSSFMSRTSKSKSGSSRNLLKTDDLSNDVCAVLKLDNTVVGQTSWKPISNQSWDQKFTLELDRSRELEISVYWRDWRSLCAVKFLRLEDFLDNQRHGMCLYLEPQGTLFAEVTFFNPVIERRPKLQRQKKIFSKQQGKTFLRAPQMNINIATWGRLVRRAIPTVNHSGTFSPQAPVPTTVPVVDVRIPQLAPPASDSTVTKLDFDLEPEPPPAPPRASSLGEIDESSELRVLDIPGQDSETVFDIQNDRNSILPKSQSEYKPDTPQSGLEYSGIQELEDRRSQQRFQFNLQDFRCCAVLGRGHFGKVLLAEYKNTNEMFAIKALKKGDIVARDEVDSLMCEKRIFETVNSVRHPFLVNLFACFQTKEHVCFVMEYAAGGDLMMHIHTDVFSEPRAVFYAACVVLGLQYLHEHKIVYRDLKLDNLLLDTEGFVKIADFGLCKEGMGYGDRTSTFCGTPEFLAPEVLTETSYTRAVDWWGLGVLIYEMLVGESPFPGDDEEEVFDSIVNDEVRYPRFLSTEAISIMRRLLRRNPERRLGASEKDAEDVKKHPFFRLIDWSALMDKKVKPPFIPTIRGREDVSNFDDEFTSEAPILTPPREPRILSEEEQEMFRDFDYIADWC
Assay: KinaseProfiler off-target kinase profiling
Type: biochemical
Conditions: 10 μM, ATP near Km
READOUT TYPE: Avg. POC (POC)

>>> df
                                   compound  measurement_unit  experimental_result
0  COCc1ccc2c(c1)C(NC(=O)Nc1c(C)c(-c3cnn(C)c3)nn1-c1ccccc1)COC2 (stereo not shown) [Example 32]               POC                 99.5
1  Cc1c(-c2cnn(C)c2)nn(-c2ccccc2)c1NC(=O)NC1CCOc2cc(F)ccc21 (stereo not shown) [Example 12]               POC                 97.5
2  Cc1c(-c2cnn(C)c2)nn(-c2ccccc2)c1NC(=O)N[C@H]1CCCc2ccccc21 [Example 2]               POC                  128
3  Cc1c(-c2ccc(=O)n(C)c2)nn(-c2ccccc2)c1NC(=O)NC1CN(CC(F)(F)F)Cc2ccccc21 (stereo not shown) [Example 26]               POC                110.5

* * *

Each record here notes measured pIC50.
Biological target: His-tagged recombinant human TrkA (Homo sapiens (Human))
Sequence (P04629 440-796): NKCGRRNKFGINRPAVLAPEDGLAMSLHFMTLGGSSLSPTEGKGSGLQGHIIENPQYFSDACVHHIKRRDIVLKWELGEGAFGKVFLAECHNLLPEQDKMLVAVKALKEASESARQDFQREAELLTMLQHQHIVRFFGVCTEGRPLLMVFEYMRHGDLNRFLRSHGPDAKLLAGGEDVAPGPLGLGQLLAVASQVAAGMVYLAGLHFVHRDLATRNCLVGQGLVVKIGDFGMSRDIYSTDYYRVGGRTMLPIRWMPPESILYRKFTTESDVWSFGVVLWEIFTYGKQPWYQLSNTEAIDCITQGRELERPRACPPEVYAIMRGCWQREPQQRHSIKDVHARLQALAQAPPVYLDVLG
Test: TrkA LanthaScreen Eu Kinase Binding Assay
Details: averaged IC50; TR-FRET binding, 60 min, 22° C.; read-out: TrkA Enzyme IC50
pIC50: −log10 of the molar value.

Worked cases, answers included:
>>> print(df.to_string())
                                   molecule                        measurement_target  readout_type  experimental_result
0  CNC(=O)c1nn(-c2ccccc2)c(NC(=O)N[C@@H]2c3ccccc3C(C)(C)[C@@H](OC)[C@H]2O)c1C  His-tagged recombinant human TrkA (Homo sapiens (Human))         pIC50               > 7.00
1  CNC(=O)c1nn(-c2ccccc2)c(NC(=O)N[C@@H]2c3ccc(F)cc3C(C)(C)C[C@H]2O)c1C  His-tagged recombinant human TrkA (Homo sapiens (Human))         pIC50               > 7.00
2  Cc1c(-c2ccc(=O)n(C)c2)nn(-c2ccccc2)c1NC(=O)N[C@@H]1c2cc(F)ccc2C(C)(C)C[C@H]1O  His-tagged recombinant human TrkA (Homo sapiens (Human))         pIC50               > 7.00
3  COc1ncc(-c2nn(-c3ccccc3)c(NC(=O)N[C@@H]3c4ccccc4CCC[C@H]3O)c2C)cn1 (relative stereo)  His-tagged recombinant human TrkA (Homo sapiens (Human))         pIC50         6.00 to 7.00
4  Cc1ncc(-c2nn(-c3ccccc3)c(NC(=O)N[C@@H]3c4cc(F)c(F)cc4C(C)(C)C[C@H]3O)c2C)cn1  His-tagged recombinant human TrkA (Homo sapiens (Human))         pIC50               > 7.00
5  CNC(=O)c1nn(-c2ccccc2)c(NC(=O)N[C@@H]2c3cc(Cl)ccc3C(C)(C)C[C@H]2O)c1C (relative stereo)  His-tagged recombinant human TrkA (Homo sapiens (Human))         pIC50               > 7.00
6  Cn1nc(-c2ccccc2)cc1NC(=O)N[C@@H]1c2ccccc2C(C)(C)C[C@H]1O  His-tagged recombinant human TrkA (Homo sapiens (Human))         pIC50         6.00 to 7.00
7  COc1nn(-c2ccccc2)c(NC(=O)N[C@@H]2c3ccccc3OC3(CCC3)[C@H]2O)c1C (relative stereo)  His-tagged recombinant human TrkA (Homo sapiens (Human))         pIC50               > 7.00

(Q) // pIC50 lookup, key: COCCO[C@H]1Cc2ccccc2[C@@H]1NC(=O)Nc1c(Br)c(C)nn1-c1ccccc1
(A) 6.00 to 7.00

(Q) What do you have for Cc1c(OCCN2CCOCC2)nn(-c2ccccc2)c1NC(=O)N[C@@H]1c2ccccc2C(C)(C)C[C@H]1O ?
(A) > 7.00

(Q) Quick one: COc1nn(-c2ccccc2)c(NC(=O)N[C@@H]2c3ccccc3CC[C@@H]2O)c1C
(A) 5.52 to 6.00

(Q) What about Cc1c(-c2cnn(C)c2)nn(-c2ccccc2)c1NC(=O)NC1CCS(=O)(=O)c2ccc(Br)cc21 (centres unmarked) ?
(A) 6.00 to 7.00

(Q) Please do the same for Cc1c(-c2ccc(=O)n(C)c2)nn(-c2ccccc2)c1NC(=O)N[C@@H]1c2ccccc2C(C)(C)C[C@H]1O (relative stereo) as well.
(A) > 7.00

(Q) Next up: COc1nn(-c2ccccc2)c(NC(=O)NC2CCN(C)c3ccccc32)c1C (centres unmarked)
(A) > 7.00

* * *

Biological target: PTK6 (Homo sapiens (Human), UniProt Q13882)
Sequence (Q13882 whole entry): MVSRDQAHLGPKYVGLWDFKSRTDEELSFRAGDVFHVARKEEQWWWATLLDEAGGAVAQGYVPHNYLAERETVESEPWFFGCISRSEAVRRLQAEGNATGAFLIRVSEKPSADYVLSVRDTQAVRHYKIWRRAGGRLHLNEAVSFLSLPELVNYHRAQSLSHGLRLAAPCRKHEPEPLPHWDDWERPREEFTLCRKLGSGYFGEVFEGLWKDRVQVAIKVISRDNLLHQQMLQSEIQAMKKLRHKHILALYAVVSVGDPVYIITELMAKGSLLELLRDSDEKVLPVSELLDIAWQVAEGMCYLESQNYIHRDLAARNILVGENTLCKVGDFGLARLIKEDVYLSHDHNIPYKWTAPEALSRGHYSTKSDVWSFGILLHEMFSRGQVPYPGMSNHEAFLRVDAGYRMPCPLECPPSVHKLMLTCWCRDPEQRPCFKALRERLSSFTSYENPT
Experiment: KinaseProfiler off-target kinase profiling
Type: biochemical
Conditions: 10 μM, ATP near Km
READOUT TYPE: Avg. POC (POC)

In [3]: df
Out[3]:
                                   compound                        measurement_target  experimental_result
0  Cc1c(-c2cnn(C)c2)nn(-c2ccccc2)c1NC(=O)N[C@H]1CCCc2ccccc21  PTK6 (Homo sapiens (Human), UniProt Q13882)                  129
1  Cc1c(-c2cnn(C)c2)nn(-c2ccccc2)c1NC(=O)NC1CCOc2cc(F)ccc21 (stereo not shown)  PTK6 (Homo sapiens (Human), UniProt Q13882)                125.5
2  Cc1c(-c2ccc(=O)n(C)c2)nn(-c2ccccc2)c1NC(=O)NC1CN(CC(F)(F)F)Cc2ccccc21 (stereo not shown)  PTK6 (Homo sapiens (Human), UniProt Q13882)                  121
3  COCc1ccc2c(c1)C(NC(=O)Nc1c(C)c(-c3cnn(C)c3)nn1-c1ccccc1)COC2 (stereo not shown)  PTK6 (Homo sapiens (Human), UniProt Q13882)                  100

* * *

Target: CHK2 (Homo sapiens (Human))
Sequence (O96017 whole entry): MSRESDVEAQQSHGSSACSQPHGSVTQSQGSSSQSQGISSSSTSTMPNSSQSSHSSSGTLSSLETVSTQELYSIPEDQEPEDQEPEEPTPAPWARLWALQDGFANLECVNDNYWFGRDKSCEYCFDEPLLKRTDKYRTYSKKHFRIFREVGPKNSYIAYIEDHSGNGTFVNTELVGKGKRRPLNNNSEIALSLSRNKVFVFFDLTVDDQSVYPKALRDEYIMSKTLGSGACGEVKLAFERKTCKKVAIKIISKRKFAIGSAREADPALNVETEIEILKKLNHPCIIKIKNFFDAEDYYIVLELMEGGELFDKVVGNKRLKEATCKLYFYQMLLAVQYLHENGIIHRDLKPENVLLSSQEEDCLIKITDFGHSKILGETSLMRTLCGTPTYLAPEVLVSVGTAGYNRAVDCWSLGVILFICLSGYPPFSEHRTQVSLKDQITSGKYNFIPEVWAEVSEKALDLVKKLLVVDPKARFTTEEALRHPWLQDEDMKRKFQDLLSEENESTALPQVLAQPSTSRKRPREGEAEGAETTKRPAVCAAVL
Experiment: KinaseProfiler off-target kinase profiling
Format: biochemical
Conditions: 10 μM, ATP near Km
Description: Representative compounds (Examples 12, 32, 26 and 2) of the invention were tested for off-target kinase activity at a concentration of 10 μM by Millipore, Inc. in their KinaseProfiler™ service against all the kinases available in their full kinase panel. Compounds were run in duplicate at a concentration of ATP near the Km for each individual kinase according to Millipore's specifications. […]
READOUT TYPE: Avg. POC (POC)

In [3]: df
Out[3]:
                                   compound  readout_type  experimental_result
0  COCc1ccc2c(c1)C(NC(=O)Nc1c(C)c(-c3cnn(C)c3)nn1-c1ccccc1)COC2 (stereo not shown) [Example 32]      Avg. POC                  112
1  Cc1c(-c2cnn(C)c2)nn(-c2ccccc2)c1NC(=O)N[C@H]1CCCc2ccccc21 [Example 2]      Avg. POC                  119
2  Cc1c(-c2ccc(=O)n(C)c2)nn(-c2ccccc2)c1NC(=O)NC1CN(CC(F)(F)F)Cc2ccccc21 (stereo not shown) [Example 26]      Avg. POC                  109
3  Cc1c(-c2cnn(C)c2)nn(-c2ccccc2)c1NC(=O)NC1CCOc2cc(F)ccc21 (stereo not shown) [Example 12]      Avg. POC                   92

* * *

Target: UniProt O00418
Assay: KinaseProfiler off-target kinase profiling
Format: biochemical
Conditions: 10 μM, ATP near Km
READOUT TYPE: Avg. POC (POC)

>>> print(df.to_string())
                                   molecule  measurement_unit  experimental_result
0  Cc1c(-c2ccc(=O)n(C)c2)nn(-c2ccccc2)c1NC(=O)NC1CN(CC(F)(F)F)Cc2ccccc21 (stereo not shown)               POC                127.5
1  Cc1c(-c2cnn(C)c2)nn(-c2ccccc2)c1NC(=O)N[C@H]1CCCc2ccccc21               POC                  138
2  Cc1c(-c2cnn(C)c2)nn(-c2ccccc2)c1NC(=O)NC1CCOc2cc(F)ccc21 (stereo not shown)               POC                  140
3  COCc1ccc2c(c1)C(NC(=O)Nc1c(C)c(-c3cnn(C)c3)nn1-c1ccccc1)COC2 (stereo not shown)               POC                  115

* * *

Biological target: Abl2 (Homo sapiens (Human), UniProt P42684)
Sequence (P42684 whole entry): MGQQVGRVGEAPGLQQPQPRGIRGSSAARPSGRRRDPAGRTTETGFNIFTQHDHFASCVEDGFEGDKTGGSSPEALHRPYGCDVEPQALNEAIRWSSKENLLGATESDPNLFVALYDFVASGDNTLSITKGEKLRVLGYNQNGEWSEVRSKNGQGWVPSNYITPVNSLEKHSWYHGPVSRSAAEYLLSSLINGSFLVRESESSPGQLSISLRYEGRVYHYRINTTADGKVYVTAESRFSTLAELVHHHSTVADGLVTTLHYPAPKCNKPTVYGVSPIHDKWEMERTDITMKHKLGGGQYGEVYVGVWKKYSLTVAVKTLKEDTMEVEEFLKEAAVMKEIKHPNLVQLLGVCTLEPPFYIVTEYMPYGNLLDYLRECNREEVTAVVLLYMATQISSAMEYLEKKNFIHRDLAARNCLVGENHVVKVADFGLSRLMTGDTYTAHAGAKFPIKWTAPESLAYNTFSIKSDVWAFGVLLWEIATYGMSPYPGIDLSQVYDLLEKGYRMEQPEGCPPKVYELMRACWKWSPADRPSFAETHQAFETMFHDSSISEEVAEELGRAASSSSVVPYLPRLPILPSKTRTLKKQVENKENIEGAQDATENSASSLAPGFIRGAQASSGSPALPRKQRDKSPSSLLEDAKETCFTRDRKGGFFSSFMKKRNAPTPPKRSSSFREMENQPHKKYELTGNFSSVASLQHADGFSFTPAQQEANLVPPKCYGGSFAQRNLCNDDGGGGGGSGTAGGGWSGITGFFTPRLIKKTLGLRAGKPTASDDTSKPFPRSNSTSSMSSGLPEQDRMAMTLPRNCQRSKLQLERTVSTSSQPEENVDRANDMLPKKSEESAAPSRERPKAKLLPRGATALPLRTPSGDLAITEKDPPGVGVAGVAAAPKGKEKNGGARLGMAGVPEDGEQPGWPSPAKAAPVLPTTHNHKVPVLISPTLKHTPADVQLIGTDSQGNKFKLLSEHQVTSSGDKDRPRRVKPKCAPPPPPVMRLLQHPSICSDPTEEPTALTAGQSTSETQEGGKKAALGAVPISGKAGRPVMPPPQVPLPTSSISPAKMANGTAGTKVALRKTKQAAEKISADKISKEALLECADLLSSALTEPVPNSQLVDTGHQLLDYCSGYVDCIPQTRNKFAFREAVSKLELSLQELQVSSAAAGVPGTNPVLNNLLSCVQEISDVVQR
Experiment: KinaseProfiler off-target kinase profiling
Type: biochemical
Conditions: 10 μM, ATP near Km
READOUT TYPE: Avg. POC (POC)

                                   compound                        measurement_target  experimental_result
0  Cc1c(-c2cnn(C)c2)nn(-c2ccccc2)c1NC(=O)N[C@H]1CCCc2ccccc21  Abl2 (Homo sapiens (Human), UniProt P42684)                112.5
1  Cc1c(-c2cnn(C)c2)nn(-c2ccccc2)c1NC(=O)NC1CCOc2cc(F)ccc21 (stereo not shown)  Abl2 (Homo sapiens (Human), UniProt P42684)                  118
2  COCc1ccc2c(c1)C(NC(=O)Nc1c(C)c(-c3cnn(C)c3)nn1-c1ccccc1)COC2 (stereo not shown)  Abl2 (Homo sapiens (Human), UniProt P42684)                121.5
3  Cc1c(-c2ccc(=O)n(C)c2)nn(-c2ccccc2)c1NC(=O)NC1CN(CC(F)(F)F)Cc2ccccc21 (stereo not shown)  Abl2 (Homo sapiens (Human), UniProt P42684)                  105
